Would you kindly list koff for each of these binders?
Target: T1, SARS-CoV2 Spike ecto foldon Trimer expressed with a C-terminal myc-myc-hexahistidine (SARS-CoV-2, UniProt P0DTC2 14-1213)
T1 construct: extracellular domain
Experiment: SPR Biacore, mAb captured by anti-hFc, 25C
Answers are plain numbers, in s⁻¹.

Hi there! I need koff for each item below, if you can.
1. mAb14258 (antibody, V domains shown) VH: QLQLQESGPGLVKPSETLSLICTGSGDSISSSHYYWGWIRQPPGKGLEWIGSTYFSGSTYYNPSLKSRVSISVDTSKNQVSLKLISVTAADTAVYYCAREMGATLGDYWGPGTLVTVSS VL: QSVLTQPPSASGTPGQRVTISCSGSSSNIGNNYVYWYQQFPGTTPRLLIYRNNERPSGVPDRFSGSKSGTSASLVISGLRSEDEADYYCAAWDDSLSAHYVFGTGTKVTVLG
2. mAb14230 (antibody, V domains shown) VH: EVQLVESGGGLIQPGRSLRLSCAASGFTFDDYAMHWVRQAPGKGLEWVSGISWNSVSIDYADSVKGRFTISRDNAKNSLYLQMTSLTVEDTALYYCAKAFGYETLTGSDYFAYWGPGTLVTVSS VL: EIVLTQSPGTLSLSPGERATLSCRASQTVISTYLAWYQQKPGQSPRLLIYGASSRATGIPDRFSGSGSGTDFTLTISRLEPEDFAVYYCQQYGSSPQLTFGGGTKVEIKR
3. mAb14234 (antibody, V domains shown) VH: QVQLVESGGGVVQPGRSLRLSCAASGFTFSSYGIHWVRQAPGKGLEWVAIIWYDGSEKYYADSVKGRFTISRDNSKNTLFLQMNSLEAEDTAVYYCARGPDLLTGYYNYFYYGMDVWGQGTTVTVSS VL: QSVLTQPPSVSGAPGQRVTISCTGSSSNIGIGYDVHWYQQLPGTVPKLLIYGNTNRPSGVPDRFSGSKSGTSASLAITGLQAEDEADYYCQSYDSSLSSYVFGTGTKVTVLG

Response:
["4.91e-05", "6.09e-05", "5.48e-05"]
